- testedOn: Mtb ThyX (Mycobacterium tuberculosis, UniProt P9WG57)
- Sequence (P9WG57 whole entry): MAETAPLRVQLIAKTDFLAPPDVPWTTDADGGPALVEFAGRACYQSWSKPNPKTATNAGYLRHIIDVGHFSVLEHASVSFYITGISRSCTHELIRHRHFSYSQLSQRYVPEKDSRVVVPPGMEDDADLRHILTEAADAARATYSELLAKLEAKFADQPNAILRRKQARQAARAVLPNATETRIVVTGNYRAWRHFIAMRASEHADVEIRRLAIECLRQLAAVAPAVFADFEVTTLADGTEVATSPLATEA
- assayMethodText: M. tuberculosis ThyX NADPH oxidase assay
- Assay type: biochemical
- conditionDescription: 200 μM compound, NADPH oxidase assay, 50 µM FAD; read-out: Inhibition % (Mtb ThyX)
reportedEndpoint: inhibition at 200 µM (%)
Hi! Could you send only the number? It should be in %, unit omitted.

compound: Cc1ccc(-n2c(=O)[nH]c3c(nc4ccccn43)c2=O)cc1
testedOn: Mtb ThyX (Mycobacterium tuberculosis, UniProt P9WG57)
inhibition at 200 µM (%): 55

// inhibition at 200 µM lookup, key: `O=c1[nH]c2c(nc3ccccn32)c(=O)n1-c1cccc(F)c1`
12.8

// inhibition at 200 µM lookup, key: O=c1[nH]c2c(nc3ccc(-c4ccc(OC(F)(F)F)cc4)cn32)c(=O)n1-c1ccc(F)cc1 [Compound 23d]
29.4

// inhibition at 200 µM lookup, key: CCCCCCNC(=O)NCC#Cc1ccc2nc3c(=O)n(-c4ccc(F)cc4)c(=O)[nH]c3n2c1 [Compound 21g]
28.2

// inhibition at 200 µM lookup, key: O=c1[nH]c2c(nc3ccc(Br)cn32)c(=O)n1-c1ccc(F)cc1 [Compound 19b]
5.4

// inhibition at 200 µM lookup, key: CCCCC#Cc1ccc2nc3c(=O)n(-c4ccc(F)cc4)c(=O)[nH]c3n2c1 [Compound 21c]
0

// inhibition at 200 µM lookup, key: O=c1[nH]c2c(nc3cc(C#CCCc4ccccc4)ccn32)c(=O)n1-c1ccc(F)cc1 [Compound 20a]
32

// inhibition at 200 µM lookup, key: Cc1ccn2c(c1)nc1c(=O)n(-c3ccc(F)cc3)c(=O)[nH]c12 [Compound 18a]
45.8

// inhibition at 200 µM lookup, key: COc1ccc(-c2ccc3nc4c(=O)n(-c5ccc(F)cc5)c(=O)[nH]c4n3c2)cc1 [Compound 23c]
35.4

// inhibition at 200 µM lookup, key: O=c1[nH]c2c(nc3cc(-c4ccccc4)ccn32)c(=O)n1-c1ccc(F)cc1 [Compound 22a]
20.7

// inhibition at 200 µM lookup, key: CCCc1ccc(C#Cc2ccn3c(c2)nc2c(=O)n(-c4ccc(F)cc4)c(=O)[nH]c23)cc1 [Compound 20b]
0

// inhibition at 200 µM lookup, key: CCCCCC#Cc1ccc2nc3c(=O)n(-c4ccc(F)cc4)c(=O)[nH]c3n2c1 [Compound 21d]
32.5

// inhibition at 200 µM lookup, key: O=c1[nH]c2c(nc3ccccn32)c(=O)n1Cc1ccccc1 [Compound 10a]
22.3

// inhibition at 200 µM lookup, key: Cc1ccc2nc3c(=O)n(-c4ccc(F)cc4)c(=O)[nH]c3n2c1 [Compound 18b]
13.2

* * *

- testedOn: Mtb ThyX (Mycobacterium tuberculosis)
- assayMethodText: M. tuberculosis ThyX NADPH oxidase assay
- Type: biochemical
- conditionDescription: 200 μM compound, NADPH oxidase assay, 50 µM FAD; read-out: Inhibition % (Mtb ThyX)
reportedEndpoint: inhibition at 200 µM

compound: O=c1[nH]c2c(nc3cc(-c4ccc(OC(F)(F)F)cc4)ccn32)c(=O)n1-c1ccc(F)cc1 [Compound 22d]
reportedEndpoint: inhibition at 200 µM
result: ≤ 28%

compound: COc1ccc(-c2ccn3c(c2)nc2c(=O)n(-c4ccc(F)cc4)c(=O)[nH]c23)cc1 [Compound 22c]
reportedEndpoint: inhibition at 200 µM
result: ≤ 28%

We now examine a further compound.
# returns recorded inhibition at 200 µM (system: Mtb ThyX (Mycobacterium tuberculosis)) for O=c1[nH]c2c(nc3cc(-c4ccc(F)cc4)ccn32)c(=O)n1-c1ccc(F)cc1 [Compound 22e]
≤ 28%
